Provenance of the data: patent US20020025337A1

- Test Summary: physchem
Experimental Endpoint: Solubility (mg/ml) Water

# example entries with known answers
Molecule	Solubility (mg/ml) Water
CC(C)CCC[C@@H](C)[C@H]1CC[C@H]2[C@@H]3CC=C4C[C@@H](O)CC[C@]4(C)[C@H]3CC[C@]12C [Cholesterol]	insol.
CC(=O)O[C@H]1C(=O)[C@@]2(C)[C@H]([C@H](OC(=O)c3ccccc3)[C@]3(O)C[C@H](OC(=O)[C@H](O)[C@@H](NC(=O)c4ccccc4)c4ccccc4)C(C)=C1C3(C)C)[C@]1(OC(C)=O)CO[C@@H]1C[C@@H]2O [Taxol]	insol
C[C@@H]1[C@H](O)[C@@H](C)/C=C/C=C/C=C/C=C/C=C/C=C/C=C/[C@H](O[C@@H]2O[C@H](C)[C@@H](O)[C@H](N)[C@@H]2O)C[C@@H]2O[C@](O)(C[C@@H](O)C[C@@H](O)[C@H](O)CC[C@@H](O)C[C@@H](O)CC(=O)O[C@H]1C)C[C@H](O)[C@H]2C(=O)O [Amphotericin]	insol.
CCC(C)n1ncn(-c2ccc(N3CCN(c4ccc(OCC5COC(Cn6cncn6)(c6ccc(Cl)cc6Cl)O5)cc4)CC3)cc2)c1=O (centres unmarked) [Itraconazole]	insol

Now consider a different molecule.
Input: # get_value(readout='Solubility (mg/ml) Water', item= CC(C)[C@@H](C)/C=C/[C@@H](C)[C@H]1CC[C@H]2C3=CC=C4C[C@@H](O)CC[C@]4(C)[C@H]3CC[C@]12C [Ergosterol] )
Output: insol.
